- Tested on: Candida albicans
- PROTOCOL: Antifungal activity against Candida albicans ATCC 10231 after 24 hrs by microdilution assay
- Assay type: functional
METRIC: MIC (µM)

Here is how some molecules turned out for MIC.
[
  {
    "MOLECULE": "C=CCc1c2c(c(O)c3c(=O)cc(C)oc13)C=CC(C)(C)O2",
    "MIC (µM)": 41.9
  },
  {
    "MOLECULE": "Cc1cc(=O)c2c(O)c3c(cc2o1)OCC(CO)=CC3",
    "MIC (µM)": 11.4
  },
  {
    "MOLECULE": "Cc1cc(=O)c2c(O)cc(O)cc2o1 [NOREUGENIN]",
    "MIC (µM)": 16.3
  },
  {
    "MOLECULE": "C[C@@H]1[C@H](O)[C@@H](C)/C=C/C=C/C=C/C=C/C=C/C=C/C=C/[C@H](O[C@@H]2O[C@H](C)[C@@H](O)[C@H](N)[C@@H]2O)C[C@@H]2O[C@](O)(C[C@@H](O)C[C@@H](O)[C@H](O)CC[C@@H](O)C[C@@H](O)CC(=O)O[C@H]1C)C[C@H](O)[C@H]2C(=O)O [AMPHOTERICIN B]",
    "MIC (µM)": 0.42
  }
]

(1) CC(=O)OCC1=CCc2c(cc3oc(C)cc(=O)c3c2O)OC1
(2) C=CCc1c2c(c(O)c(C(C)=O)c1OC)C=CC(C)(C)O2
INPUT: Return label of the item with the larger MIC. Candidates: 1 , 2 . Kindly state the label of the option you pick.
OUTPUT: 2

* * *

- System: Cryptococcus neoformans
- PROTOCOL: Antifungal activity against Cryptococcus neoformans after 24 hrs by microdilution assay
- Assay type: functional
METRIC: MIC (µM)

[
  {
    "SMILES_INPUT": "C=CCc1c(O)cc(O)c2c(=O)cc(C)oc12",
    "TARGET_SYSTEM": "Cryptococcus neoformans",
    "UNIT_STRING": "µM",
    "VALUE_MEASURED": 13.5
  }
]

(P) CC(=O)OCC1=CCc2c(cc(O)c3c(=O)cc(C)oc23)OC1
(Q) Cc1cc(=O)c2c(O)c3c(cc2o1)OCC(CO)=CC3
(R) C=CCc1c2c(c(O)c(C(C)=O)c1OC)C=CC(C)(C)O2
INPUT: Hey, quick one: sort these by MIC, low to high? Write the labels in rank order as requested.
OUTPUT: Q, P, R
(Q: 5.7 µM, P: 9.9 µM, R: 21.7 µM)

(1) C=CCc1c2c(c(O)c3c(=O)cc(C)oc13)C=CC(C)(C)O2
(2) CC(=O)OCC1=CCc2c(cc3oc(C)cc(=O)c3c2O)OC1
INPUT: Return label of the item with the larger MIC. Candidates: 1 , 2 . Kindly state the label of the option you pick.
OUTPUT: 1
(1: 10.5 µM, 2: 4.9 µM)

* * *

- Tested on: Cryptococcus neoformans
- PROTOCOL: Antifungal activity against Cryptococcus neoformans after 48 hrs by microdilution assay
- Assay type: functional
METRIC: MIC (µM)

Here is how some compounds turned out for MIC.
[
  {
    "COMPOUND": "COc1cc2c(c(OC)c1C(C)=O)CC=C(CO)CO2",
    "VALUE_MEASURED": 11.2
  },
  {
    "COMPOUND": "C[C@@H]1[C@H](O)[C@@H](C)/C=C/C=C/C=C/C=C/C=C/C=C/C=C/[C@H](O[C@@H]2O[C@H](C)[C@@H](O)[C@H](N)[C@@H]2O)C[C@@H]2O[C@](O)(C[C@@H](O)C[C@@H](O)[C@H](O)CC[C@@H](O)C[C@@H](O)CC(=O)O[C@H]1C)C[C@H](O)[C@H]2C(=O)O [AMPHOTERICIN B]",
    "VALUE_MEASURED": 0.42
  },
  {
    "COMPOUND": "CC(=O)OCC1=CCc2c(cc3oc(C)cc(=O)c3c2O)OC1",
    "VALUE_MEASURED": 4.9
  },
  {
    "COMPOUND": "C=CCc1c2c(c(O)c3c(=O)cc(C)oc13)C=CC(C)(C)O2",
    "VALUE_MEASURED": 10.5
  },
  {
    "COMPOUND": "Cc1cc(=O)c2c(O)cc(O)cc2o1 [NOREUGENIN]",
    "VALUE_MEASURED": 16.3
  }
]

(1) Cc1cc(=O)c2c(O)c3c(cc2o1)OCC(CO)=CC3
(2) CC(=O)OCC1=CCc2c(cc(O)c3c(=O)cc(C)oc23)OC1
INPUT: Kindly compare 1 with 2 and tell me which has the lower MIC figure. Kindly state the label of the option you pick.
OUTPUT: 1

(P) Cc1cc(=O)c2c(O)cc3c(c2o1)CC=C(CO)CO3
(Q) C=CCc1c(O)cc(O)c2c(=O)cc(C)oc12
INPUT: Kindly compare P with Q and tell me which has the lower MIC figure. Kindly state the label of the option you pick.
OUTPUT: P
(P: 5.7 µM, Q: 13.5 µM)
